All values here come from patent US20240270821A1.

- TARGET_ENTITY: hGcgR (Homo sapiens, UniProt P47871)
- Sequence (P47871 26-477): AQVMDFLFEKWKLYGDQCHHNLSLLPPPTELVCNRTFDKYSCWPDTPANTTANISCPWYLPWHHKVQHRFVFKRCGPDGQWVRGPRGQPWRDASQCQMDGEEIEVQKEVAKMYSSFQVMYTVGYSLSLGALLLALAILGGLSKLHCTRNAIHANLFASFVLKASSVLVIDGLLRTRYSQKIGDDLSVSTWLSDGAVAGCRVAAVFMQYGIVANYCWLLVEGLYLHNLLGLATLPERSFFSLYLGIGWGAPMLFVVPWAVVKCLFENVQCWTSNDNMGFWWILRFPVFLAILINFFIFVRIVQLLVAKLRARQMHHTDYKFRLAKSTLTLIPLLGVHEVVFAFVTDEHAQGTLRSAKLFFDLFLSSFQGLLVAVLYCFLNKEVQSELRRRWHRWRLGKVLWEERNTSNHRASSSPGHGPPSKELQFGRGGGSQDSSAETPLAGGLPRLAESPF
- ASSAY_REMARKS: Functional cAMP activation in the presence of 0.1% casein (no HSA);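 also: intracellular cAMP rise after 30 min at 37 °C, read by HTRF against a cAMP standard curve, scaled from buffer only (0%) to maximal control ligand response (100%)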
- Type: cell-based
- CONDITION_CONTEXT: in the presence of 0.1% casein (no HSA); geometric mean; read-out: Relative cAMP EC50, hGcgR
pEC50: −log10 of the molar value. Starred links: 1 amine or outer side, 2 acyl side, 3 side chain; linkers in the order of their positions; H or OH if unused. Non-standard residues stand in square brackets, D forms with d. Groups on a side chain read outwards from the residue. No end group written: not given here. *: point of attachment. C20 diacid = O=C(O)CCCCCCCCCCCCCCCCCCC(=O)*; C18 diacid = O=C(O)CCCCCCCCCCCCCCCCC(=O)*; αMePhe(2-F) = C[C@](N)(Cc1ccccc1F)C(=O)O; γGlu = O=C(O)[C@H](CCC(=O)[*:2])N[*:1]; αMe4Pal = C[C@](N)(Cc1ccncc1)C(=O)O; αMeY = C[C@](N)(Cc1ccc(O)cc1)C(=O)O; 4Pal = N[C@@H](Cc1ccncc1)C(=O)O; αMeL = CC(C)C[C@](C)(N)C(=O)O; αMeS = C[C@](N)(CO)C(=O)O; Orn = NCCC[C@H](N)C(=O)O; AEEA = NCCOCCOCC(=O)O; Aib = CC(C)(N)C(=O)O
Decision: pEC50 >= 8 yields true, all other cases yield false.

Here's what some known entries look like.
H-Y[Aib]QGTFTSDFS[Orn][αMeL]LDKK([AEEA-AEEA-γGlu-C18 diacid])AQ[Aib]AFIEYLLE[Aib]G[4Pal]SSGAPPPSGS-NH2 [Example 183]; true
H-Y[Aib]QGTFTSD[4Pal]S[Orn][αMeL]LD[Orn]K([γGlu-γGlu-C18 diacid])AQ[αMe4Pal]EFIE[αMeY]LIEGGPSSGAPPPSGSEE-NH2 [Example 973]; false
Y[Aib]QGT[αMePhe(2-F)]TSD[4Pal][αMeS]I[αMeL]LD[Orn]K([AEEA-γGlu-C18 diacid])AQ[αMe4Pal]EFI[dE][αMeY]LIEGGPSSGAPPPESE-NH2 [Example 1146]; true
H-Y[Aib]QGTFTSDFSK[αMeL]LDKK([AEEA-γGlu-C18 diacid])AQ[Aib]AFIEYLIE[Aib]GESSGAPPPSGS-NH2 [Example 216]; true
H-Y[Aib]QGTFTSD[4Pal]S[Orn][αMeL]LDKK([AEEA-γGlu-γGlu-C18 diacid])AQ[αMe4Pal]AFIE[αMe4Pal]LIE[Aib]GPSSGEPPPSGS-NH2 [Example 987]; true
H-Y[Aib]QGTFTSDYSK[αMeL]LDKK([AEEA-γGlu-C20 diacid])AQQAFVQWLIEGGPSSGEPPPSEG-NH2 [Example 315]; true
Y[Aib]QGTFTSD[4Pal]SQ[αMeL]LD[Orn]K([AEEA-γGlu-C18 diacid])AQ[αMe4Pal]AFIE[αMeY]LLEGGPSSGAPPPSGS-NH2 [Example 932]; true
H-Y[Aib]QGT[αMePhe(2-F)]TSD[4Pal][αMeS]I[αMeL]LD[Orn]K([γGlu-γGlu-C18 diacid])AQ[αMe4Pal]EFI[dE][αMeY]LVEGGPSSGEPPPSGSE-NH2 [Example 1163]; true

In plain terms: is recorded pEC50 at least 8 for H-Y[Aib]QGTFTSD[4Pal]SR[αMeL]LDKK([γGlu-γGlu-C18 diacid])AQ[αMe4Pal]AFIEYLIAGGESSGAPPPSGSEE-NH2 [Example 965] ? true

One more substance: H-Y[Aib]QGTFTSD[4Pal]SQ[αMeL]LD[Orn]K([AEEA-γGlu-C18 diacid])AQ[αMe4Pal]AFI[dE][αMeY]LIEGGPSSGAPPPSGSEE-NH2 [Example 1042] false
